# subjectOfTest: Muscarinic acetylcholine receptor M1 (Homo sapiens)
# assayInfo: Cholinergic receptor muscarinic 1 (CHRM1) small molecule antagonists, cell-based qHTS assay (AID 1963588); note: nearly all actives have a fitted effect of over 40% in size
# measurementSetup: CHRM1-CHO antagonist mode, calcium flux fluorescence; series mostly up to 61.5 µM
Results filed as inconclusive are left out. The source made the active and inactive calls. Calls come from the whole dose curve.
The reply should be one of these categories: True = active, False = inactive

Answered cases to consult:
{"compound": "NNc1nc(-c2ccc([N+](=O)[O-])cc2)cs1", "subjectOfTest": "Muscarinic acetylcholine receptor M1 (Homo sapiens)", "assignedClass": "False"}
{"compound": "Nc1ccc2cc(S(=O)(=O)O)cc(O)c2c1", "subjectOfTest": "Muscarinic acetylcholine receptor M1 (Homo sapiens)", "assignedClass": "False"}
{"compound": "Cc1c(Cl)cccc1Nc1ccccc1C(=O)O", "subjectOfTest": "Muscarinic acetylcholine receptor M1 (Homo sapiens)", "assignedClass": "True"}
{"compound": "Cc1ccc(OC(=O)c2ccccc2O)cc1", "subjectOfTest": "Muscarinic acetylcholine receptor M1 (Homo sapiens)", "assignedClass": "False"}
{"compound": "CC(C)(C)C(=O)CC(=O)C(C)(C)C", "subjectOfTest": "Muscarinic acetylcholine receptor M1 (Homo sapiens)", "assignedClass": "False"}

Assay result, entry COC(=O)c1c(C)cc(O)c(C)c1O — outcome? False

Record: CNCCC(Oc1ccccc1OC)c1ccccc1 (configuration not stated) True
